Tested on: L1210 leukemia ip in BDF1 mice, survival T/C
ASSAY_REMARKS: NCI In Vivo Anticancer Drug Screen. Data for tumor model L1210 Leukemia (intraperitoneal) in B6D2F1 (BDF1) mice
EXPERIMENTAL_PARAMETERS: endpoint: mean survival time; dose: 80.0 mg/kg/injection; schedule: Q01DX001 (ip); vehicle: saline; higher = longer survival
Procedure: The antitumor activity of compounds was measured in mice bearing transplantable tumors. Survival or tumor size were measured and the results are expressed as the measurement made in the treated group (T) divided by the measurement made in the vehicle treated control group (C). The tumor model used in this assay is L1210 Leukemia (intraperitoneal) in B6D2F1 (BDF1) mice
Inconclusive results and toxic doses are left out.
Would you kindly list T/C for each of these compounds?

ITEM_SMILES	T/C
N=C(N)c1ccc(OCCCCCCOc2ccc(C(=N)N)cc2)cc1	92 % of control
OCCN(CCO)CCN1c2ccccc2Sc2ccccc21	95 % of control
COc1ccccc1C[N+](C)(C)C	102 % of control

With those in mind, consider the next compound.
Param item = CCCCN=C(N)N=C(N)N ; retrieve measured T/C.
105 % of control

Cited source for all entries: PubChem BioAssay AID248
